Just for reference, the supplement of paper PMC11061612 is where these values come from.

# System: AMO-1 (Plasma Cell Myeloma)
# assay: combination Emax (second highest fraction inhibited in the dose matrix, 72 h); higher = more inhibition; extreme values may be limits of the assay
assayReadout: combination Emax
API doc: respond with a numeric literal and nothing else, no unit.

Example entries and their recorded answers appear below.
molecule	combination Emax
Cc1cc2ncnn2cc1Nc1ncc2c(n1)n(C1CCOCC1)c(=O)n2C [AZD7648] + COc1cc([C@@H]2c3cc4c(cc3[C@@H](O[C@@H]3O[C@@H]5CO[C@@H](C)O[C@H]5[C@H](O)[C@H]3O)[C@H]3COC(=O)[C@H]23)OCO4)cc(OC)c1O [Etoposide] (first compound max 10 µM, 7x7, partner max 10 µM)	0.942
COc1cccc(OCCCN)c1-c1cc(Nc2cnc(C#N)cn2)n[nH]1 [Prexasertib] + CN(C)CCCOc1ccc(-c2ccc3ncc4c(c3c2)n(C2CCOCC2)c(=O)n4C)cn1 [AZD0156] (first compound max 1 µM, 7x7, partner max 1 µM)	0.98
CN(CCO)CC[C@H](CSc1ccccc1)Nc1ccc(S(=O)(=O)NC(=O)c2ccc(N3CCC([C@@H](O)c4ccccc4-c4ccc(Cl)cc4)CC3)cc2)cc1S(=O)(=O)C(F)(F)F [AZD4320] + C=CCn1c(=O)c2cnc(Nc3ccc(N4CCN(C)CC4)cc3)nc2n1-c1cccc(C(C)(C)O)n1 [AZD1775] (first compound max 1 µM, partner max 1 µM)	0.732
CN(CCO)CC[C@H](CSc1ccccc1)Nc1ccc(S(=O)(=O)NC(=O)c2ccc(N3CCC([C@@H](O)c4ccccc4-c4ccc(Cl)cc4)CC3)cc2)cc1S(=O)(=O)C(F)(F)F [AZD4320] + CS(=O)(=O)CCNCc1ccc(-c2ccc3ncnc(Nc4ccc(OCc5cccc(F)c5)c(Cl)c4)c3c2)o1 [Lapatinib] (first compound max 1 µM, 7x7, partner max 10 µM)	0.926
COc1nnc2ccc(N3CCC(c4ccc(OCCN5CCN(C)C(=O)[C@H]5C)cc4)CC3)nn12 [AZD5153] + CCN(CCO)CCCOc1ccc2c(Nc3cc(CC(=O)Nc4cccc(F)c4)[nH]n3)ncnc2c1 [AZD2811] (first compound max 1 µM, 7x7, partner max 1 µM)	0.912

Entry C[C@@H]1COCCN1c1cc(C2([S@](C)(=N)=O)CC2)nc(-c2ccnc3[nH]ccc23)n1 [AZD6738] + O=C(c1cc(Cc2n[nH]c(=O)c3ccccc23)ccc1F)N1CCN(C(=O)C2CC2)CC1 [Olaparib] (first compound max 10 µM, 7x7, partner max 10 µM) needs its combination Emax filled in; supply it. 0.866

Entry CN(C)CCCOc1ccc(-c2ccc3ncc4c(c3c2)n(C2CCOCC2)c(=O)n4C)cn1 [AZD0156] + CCN(CCO)CCCOc1ccc2c(Nc3cc(CC(=O)Nc4cccc(F)c4)[nH]n3)ncnc2c1 [AZD2811] (first compound max 1 µM, 7x7, partner max 1 µM) needs its combination Emax filled in; supply it. 0.312

Entry CC(=O)c1c(C)c2cnc(Nc3ccc(N4CCNCC4)cn3)nc2n(C2CCCC2)c1=O [Palbociclib] + CC1(C)CCC(CN2CCN(c3ccc(C(=O)NS(=O)(=O)c4ccc(NCC5CCOCC5)c([N+](=O)[O-])c4)c(Oc4cnc5[nH]ccc5c4)c3)CC2)=C(c2ccc(Cl)cc2)C1 [Venetoclax] (first compound max 10 µM, 7x7, partner max 1 µM) needs its combination Emax filled in; supply it. 0.273

Entry COc1cccc(OCCCN)c1-c1cc(Nc2cnc(C#N)cn2)n[nH]1 [Prexasertib] + C[C@@H]1COCCN1C2=NC(=NC(=C2)C3(CC3)[S@](=N)(=O)C)C4=C5C=CNC5=NC=C4 [AZD6738] (first compound max 1 µM, 7x7, partner max 10 µM) needs its combination Emax filled in; supply it. 0.965

Entry CN(C)CCCOc1ccc(-c2ccc3ncc4c(c3c2)n(C2CCOCC2)c(=O)n4C)cn1 [AZD0156] + C[C@@H]1COCCN1C2=NC(=NC(=C2)C3(CC3)[S@](=N)(=O)C)C4=C5C=CNC5=NC=C4 [AZD6738] (first compound max 1 µM, 7x7, partner max 10 µM) needs its combination Emax filled in; supply it. 0.908

Entry Cc1cc2ncnn2cc1Nc1ncc2c(n1)n(C1CCOCC1)c(=O)n2C [AZD7648] + CN(C)CCCOc1ccc(-c2ccc3ncc4c(c3c2)n(C2CCOCC2)c(=O)n4C)cn1 [AZD0156] (first compound max 10 µM, 7x7, partner max 1 µM) needs its combination Emax filled in; supply it. 0.431

Entry CC(=O)c1c(C)c2cnc(Nc3ccc(N4CCNCC4)cn3)nc2n(C2CCCC2)c1=O [Palbociclib] + Cc1c2c(nn1C)CSCc1cc(n(C)n1)CSc1cc(c3ccccc3c1)OCCCc1c(C(=O)O)n(C)c3c-2c(Cl)ccc13 [AZD5991] (first compound max 10 µM, 7x7, partner max 1 µM) needs its combination Emax filled in; supply it. 1

Entry COc1cccc(OCCCN)c1-c1cc(Nc2cnc(C#N)cn2)n[nH]1 [Prexasertib] + C=CCn1c(=O)c2cnc(Nc3ccc(N4CCN(C)CC4)cc3)nc2n1-c1cccc(C(C)(C)O)n1 [AZD1775] (first compound max 1 µM, partner max 1 µM) needs its combination Emax filled in; supply it. 0.99

Entry Cc1c2c(nn1C)CSCc1cc(n(C)n1)CSc1cc(c3ccccc3c1)OCCCc1c(C(=O)O)n(C)c3c-2c(Cl)ccc13 [AZD5991] + CN(C)CCCOc1ccc(-c2ccc3ncc4c(c3c2)n(C2CCOCC2)c(=O)n4C)cn1 [AZD0156] (first compound max 1 µM, 7x7, partner max 1 µM) needs its combination Emax filled in; supply it. 1

----------
# Test system: AMO-1 (Plasma Cell Myeloma)
# assay: Bliss excess, mean over the matrix (fraction); higher = more synergy
Quick list: Bliss excess per entry.
API doc: respond with a numeric literal and nothing else, no unit.

Example entries and their recorded answers appear below.
compound	Bliss excess
CC1(C)CCC(CN2CCN(c3ccc(C(=O)NS(=O)(=O)c4ccc(NCC5CCOCC5)c([N+](=O)[O-])c4)c(Oc4cnc5[nH]ccc5c4)c3)CC2)=C(c2ccc(Cl)cc2)C1 [Venetoclax] + CCN(CCO)CCCOc1ccc2c(Nc3cc(CC(=O)Nc4cccc(F)c4)[nH]n3)ncnc2c1 [AZD2811] (first compound max 1 µM, 7x7, partner max 1 µM)	0.0249
CC1(C)CCC(CN2CCN(c3ccc(C(=O)NS(=O)(=O)c4ccc(NCC5CCOCC5)c([N+](=O)[O-])c4)c(Oc4cnc5[nH]ccc5c4)c3)CC2)=C(c2ccc(Cl)cc2)C1 [Venetoclax] + C[C@@H](Nc1cc(F)cc(F)c1)c1cc(C(=O)N(C)C)cc2c(=O)cc(N3CCOCC3)oc12 [AZD8186] (first compound max 1 µM, 7x7, partner max 3 µM)	-0.0065

As a next step, examine the compound that follows.
Entry Cc1cc2ncnn2cc1Nc1ncc2c(n1)n(C1CCOCC1)c(=O)n2C [AZD7648] + C[C@@H]1COCCN1C2=NC(=NC(=C2)C3(CC3)[S@](=N)(=O)C)C4=C5C=CNC5=NC=C4 [AZD6738] (first compound max 10 µM, 7x7, partner max 10 µM) needs its Bliss excess filled in; supply it. -0.0184

----------
Quick list: combination Emax per entry.
# Tested on: EoL-1-cell (Acute Myeloid Leukemia)
# assay: combination Emax (second highest fraction inhibited in the dose matrix, 72 h); higher = more inhibition; extreme values may be limits of the assay
API doc: respond with a numeric literal and nothing else, no unit.

Example entries and their recorded answers appear below.
molecule	testedTarget	combination Emax
CC1(C)CCC(CN2CCN(c3ccc(C(=O)NS(=O)(=O)c4ccc(NCC5CCOCC5)c([N+](=O)[O-])c4)c(Oc4cnc5[nH]ccc5c4)c3)CC2)=C(c2ccc(Cl)cc2)C1 [Venetoclax] + C1CN(CCC1(C(=O)N[C@@H](CCO)C2=CC=C(C=C2)Cl)N)C3=NC=NC4=C3C=CN4 [Capivasertib] (first compound max 1 µM, 7x7, partner max 3 µM)	EoL-1-cell (Acute Myeloid Leukemia)	1
NC1(C(=O)N[C@@H](CCO)c2ccc(Cl)cc2)CCN(c2ncnc3[nH]ccc23)CC1 [Capivasertib] + CC(=O)c1c(C)c2cnc(Nc3ccc(N4CCNCC4)cn3)nc2n(C2CCCC2)c1=O [Palbociclib] (first compound max 10 µM, 7x7, partner max 10 µM)	EoL-1-cell (Acute Myeloid Leukemia)	0.858
C[C@@H](Nc1cc(F)cc(F)c1)c1cc(C(=O)N(C)C)cc2c(=O)cc(N3CCOCC3)oc12 [AZD8186] + CC(=O)c1c(C)c2cnc(Nc3ccc(N4CCNCC4)cn3)nc2n(C2CCCC2)c1=O [Palbociclib] (first compound max 10 µM, 7x7, partner max 10 µM)	EoL-1-cell (Acute Myeloid Leukemia)	0.551

Entry CN(CCO)CC[C@H](CSc1ccccc1)Nc1ccc(S(=O)(=O)NC(=O)c2ccc(N3CCC([C@@H](O)c4ccccc4-c4ccc(Cl)cc4)CC3)cc2)cc1S(=O)(=O)C(F)(F)F [AZD4320] + C=CCn1c(=O)c2cnc(Nc3ccc(N4CCN(C)CC4)cc3)nc2n1-c1cccc(C(C)(C)O)n1 [AZD1775] (first compound max 1 µM, partner max 1 µM) needs its combination Emax filled in; supply it. 1

Entry Cc1cc2ncnn2cc1Nc1ncc2c(n1)n(C1CCOCC1)c(=O)n2C [AZD7648] + C=CCn1c(=O)c2cnc(Nc3ccc(N4CCN(C)CC4)cc3)nc2n1-c1cccc(C(C)(C)O)n1 [AZD1775] (first compound max 10 µM, partner max 1 µM) needs its combination Emax filled in; supply it. 0.978

Entry Cn1cnc2c(F)c(Nc3ccc(Br)cc3Cl)c(C(=O)NOCCO)cc21 [Selumetinib] + CCN(CCO)CCCOc1ccc2c(Nc3cc(CC(=O)Nc4cccc(F)c4)[nH]n3)ncnc2c1 [AZD2811] (first compound max 10 µM, 7x7, partner max 1 µM) needs its combination Emax filled in; supply it. 1

Entry C=CCn1c(=O)c2cnc(Nc3ccc(N4CCN(C)CC4)cc3)nc2n1-c1cccc(C(C)(C)O)n1 [AZD1775] + CCc1c2c(nc3ccc(O)cc13)-c1cc3c(c(=O)n1C2)COC(=O)[C@]3(O)CC [SN-38] (first compound max 1 µM, partner max 0.3 µM) needs its combination Emax filled in; supply it. 1
